# Measurement Target: Follistatin (Homo sapiens) (UniProt P19883)
# Sequence (P19883 whole entry, looked up): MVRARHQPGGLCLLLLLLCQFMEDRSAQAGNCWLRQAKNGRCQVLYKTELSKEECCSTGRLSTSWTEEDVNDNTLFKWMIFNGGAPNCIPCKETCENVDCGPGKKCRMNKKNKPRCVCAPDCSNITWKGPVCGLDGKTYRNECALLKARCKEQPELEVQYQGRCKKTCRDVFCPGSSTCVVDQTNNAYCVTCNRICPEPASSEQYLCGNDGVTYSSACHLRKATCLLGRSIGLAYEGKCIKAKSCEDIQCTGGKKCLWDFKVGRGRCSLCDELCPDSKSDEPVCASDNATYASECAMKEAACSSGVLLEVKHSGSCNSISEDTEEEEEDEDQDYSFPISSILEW
# Experiment Description: FST protein binding to printed compounds – biochemical, small-molecule microarray, 635/667 nm fluorescence, primary screen (AID 1132)
# Setup Conditions: 635 nm fluorescence, higher = more signal
Please enter YES where composite z-score is greater than or equal to 0.7, and NO where it is lower.

Prompt: Given the entry COc1cc(OC)c(C(O)C2C=CC3C(=O)N(Cc4ccccc4)C(=O)C3N2n2cnnc2)cc1Br (stereo unspecified) , answer whether its composite z-score meets or surpasses 0.7.
Response: YES

Prompt: Next: COc1ccc(CCNC(=O)[C@@]2(Cc3ccccc3I)c3ccccc3C(=O)N(C3CCCCC3)[C@H]2c2ccc(CO)cc2)cc1
Response: NO

Prompt: Next: CCCCCN1CC=CC23O[C@@H]4/C=C\CCCOC(=O)C4[C@H]2C(=O)N(C(C)CO)[C@@H]3C1=O (stereo partly specified)
Response: NO

Prompt: Next: C=C[C@@H](CO)N(Cc1ccc(OC)cc1)S(=O)(=O)c1ccc(Br)cc1
Response: NO

Prompt: Next: COc1cc(C(O)C2C=CC3C(=O)N(C)C(=O)C3N2Nc2ccccc2)cc(OC)c1OC (stereo unspecified)
Response: NO

Prompt: Next: CC(C)NC(=O)[C@@]1(c2ccc([N+](=O)[O-])cc2)CC(=O)N(C2CCCCC2)[C@@H]1c1ccc(CO)cc1
Response: YES

Prompt: Next: COC(=O)[C@@H]1N=C(c2ccc(OCCCO)cc2)O[C@@H]1C
Response: YES

Prompt: Next: CCN(CC)c1ccc(N2CC=CC34O[C@@H]5/C=C\CCCOC(=O)C5[C@H]3C(=O)N(C(C)CO)[C@@H]4C2=O)cc1 (stereo partly specified)
Response: NO

Prompt: Next: CCCC=C(CCC)[C@@H](NP(=O)(c1ccccc1)c1ccccc1)c1ccc(-c2ccccc2)cc1
Response: YES

Prompt: Next: CCCCC(=C=CC[C@H](O)c1ccc(OCCO)cc1)CCO
Response: NO

More entries:
Prompt: Given the entry C=CCNC(=O)[C@@H]1[C@H]2C(=O)O[C@H](c3ccccc3)[C@H](c3ccccc3)N2[C@H](c2ccc(OCCO)cc2)[C@@]12C(=O)N(C(=O)OCCOC)c1ccc(C#Cc3ccc(OC)cc3)cc12 , answer whether its composite z-score meets or surpasses 0.7.
Response: YES

Prompt: Next: CCCCNC(=O)c1ccc(C#CC(C)(C)C)c(OC(C)=O)c1
Response: NO

Prompt: Next: CO[C@H]1O[C@H](CO)[C@@H](OC(=O)CCc2ccccc2)[C@@H]2OC(=O)[C@@H](Cc3ccccc3)C/C=C/C[C@H](Cc3ccccc3)C(=O)O[C@@H]12
Response: YES

Prompt: Next: CCCC1(C(=O)OC)C=C2C(=C(C)C(=O)C2C)CN1 (stereo unspecified)
Response: NO

Prompt: Next: CCOC(=O)C[C@H]1[C@H](OC(=O)c2cc3ccccc3oc2=O)[C@@H](NC(=O)c2ccc3ccccc3n2)c2cc(OCCCO)ccc2N1C(=O)Cc1ccc(OC)cc1
Response: YES

Prompt: Next: CC(C)C(CO)N1C(=O)[C@@H]2C3C(=O)OCCC/C=C\[C@H]3OC23C=CCN(Cn2nnc4ccccc42)C(=O)[C@@H]13 (stereo partly specified)
Response: NO

###

# Measurement Target: Torsin-1A-interacting protein 1 (Homo sapiens)
# Experiment Description: compound microarray binding of lysate hLAP1 – cell lysate, small-molecule microarray, COS7 lysate, 635/667 nm fluorescence, primary screen (AID 1116)
# Setup Conditions: 635 nm fluorescence, higher = more signal
Attribute: composite z-score

Prompt: // query composite z-score value for entry COC(=O)[C@@]1(Cc2ccc(F)cc2)[C@H]2c3cc(C(=O)N4CCCC4)n(Cc4ccc(C)c(F)c4F)c3C[C@H]2CN1C(=O)c1ccccc1
Response: 0.65

Consider the additional compound presented here.
Prompt: // query composite z-score value for entry CCCCCCCCCC(O)C1C=CC2C(=O)N(c3ccccc3)C(=O)C2N1Nc1cc(OC)c(OC)c(OC)c1 (stereo not given)
Response: 0.559
